Recorded values, source paper PMC8991199.

# subject_of_test: fIF, fluorescently labelled H14 foldamer IF
# assay_protocol: fluorescence polarisation; direct FP: S100 protein diluted in 50 nM labeled foldamer, 20 mM HEPES pH 7.5, 150 mM NaCl, 1 mM CaCl2, 0.5 mM TCEP, 0.01% Tween20; quadratic fit (ProFit); detection threshold Kd 1 mM
pKd: −log10 of the molar value.

binder: S100A8 (natural protein) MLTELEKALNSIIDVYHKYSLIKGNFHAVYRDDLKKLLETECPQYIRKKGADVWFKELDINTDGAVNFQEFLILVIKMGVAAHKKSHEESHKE
pKd: 3.12

binder: S100B (natural protein) MSELEKAMVALIDVFHQYSGREGDKHKLKKSELKELINNELSHFLEEIKEQEVVDKVMETLDNDGDGECDFQEFMAFVAMVTTACHEFFEHE
pKd: 3.85
